- assayed.system: DYRK1A (Homo sapiens)
- Construct: The DNA encoding DYRK1A with a non-cleavable N-terminal MBP-tag was synthesized by Genscript; made in house; host or cells: E. coli BL21 (DE3) RIPL
- protocol.notes: DYRK1A kinase inhibition assay (ADP-Glo Kinase Assay, DYRKtide substrate);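 also: DYRKtide phosphorylation read out by luminescence, reaction run in Tris buffer pH 7.5 with MgCl2 and BSA, containing 1% DMSO or methanol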
- Assay type: biochemical
- condition.description: at the concentrations tested
readout: DYRK1A inhibition (in words)

COc1ccc(-c2oc3cc(O)cc(O)c3c(=O)c2O)cc1 [Kaempferide] | effective inhibition
COc1cc(-c2oc3cc(O)cc(O)c3c(=O)c2O)ccc1O | moderate activity
O=c1c(O)c(-c2ccc(O)cc2)oc2cc(O)cc(O)c12 [Kaempferol, 3,5,7,4′-tetrahydroxyflavone] | moderate activity
O=c1cc(-c2ccc(O)cc2)oc2cc(O)cc(O)c12 | effective inhibition
